# target-or-test-system: human P2X7 receptor (Homo sapiens, UniProt Q99572, R270H)
# Construct: expressed in transfected cells
# Sequence (Q99572 whole entry R270H): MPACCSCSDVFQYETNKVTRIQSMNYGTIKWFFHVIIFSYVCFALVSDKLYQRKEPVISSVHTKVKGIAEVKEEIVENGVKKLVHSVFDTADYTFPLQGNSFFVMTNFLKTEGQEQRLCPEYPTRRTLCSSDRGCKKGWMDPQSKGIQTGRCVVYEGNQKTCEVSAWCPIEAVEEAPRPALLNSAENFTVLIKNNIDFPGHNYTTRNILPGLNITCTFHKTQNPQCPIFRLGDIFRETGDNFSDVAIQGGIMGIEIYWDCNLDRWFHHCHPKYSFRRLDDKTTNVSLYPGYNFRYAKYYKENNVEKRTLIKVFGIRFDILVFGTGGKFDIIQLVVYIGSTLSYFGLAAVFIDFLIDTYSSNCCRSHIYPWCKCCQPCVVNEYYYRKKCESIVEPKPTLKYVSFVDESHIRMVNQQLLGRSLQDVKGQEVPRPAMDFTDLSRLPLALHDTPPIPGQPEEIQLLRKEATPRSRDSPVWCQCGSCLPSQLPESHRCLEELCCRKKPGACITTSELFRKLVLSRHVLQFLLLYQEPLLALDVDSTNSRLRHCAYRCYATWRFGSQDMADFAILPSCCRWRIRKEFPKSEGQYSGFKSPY
# assay-protocol: Evaluation of a human P2X7 receptor inhibitory activity (Yo-Pro uptake, BzATP stimulation, FLIPR TETRA)
# Format: cell-based
# cond: antagonistic activity for the human P2X7 receptor, 1321N1 cell transfected with the human P2X7 receptor gene, Yo-Pro fluorescence, class symbols
metric-name: IC50

Please fill in: IC50 reported for COc1cn(Cc2ccccn2)c(-c2cccc(C(F)(F)F)c2Cl)nc1=O = 100 to 500 nM

Measured IC50, O=c1ccn(Cc2ccc(OCc3ccccc3)cc2)c(-c2cccc(C(F)(F)F)c2Cl)c1 : 1000 to 10000 nM

Per the record, COc1cn(Cc2ccccc2C)c(-c2cccc(Cl)c2)nc1=O has IC50 of 1000 to 10000 nM

Entry COc1cn(Cc2ccc(C#N)cc2)c(-c2cccc(C(F)(F)F)c2Cl)nc1=O — recorded IC50 = 1000 to 10000 nM

// IC50 lookup, compound = Cc1ccc(Cn2ccc(=O)cc2-c2cccc(C(F)(F)F)c2Cl)cc1 , result: 1000 to 10000 nM

----------
# target-or-test-system: human P2X7 receptor (Homo sapiens, UniProt Q99572, R270H)
# Construct: expressed in transfected cells
# assay-protocol: Evaluation of a human P2X7 receptor inhibitory activity (Yo-Pro uptake, BzATP stimulation, FLIPR TETRA)
# Assay type: cell-based
# cond: antagonistic activity for the human P2X7 receptor, 1321N1 cell transfected with the human P2X7 receptor gene, Yo-Pro fluorescence, class symbols
Exercise: state measured IC50 for each of the molecules provided.

For record Cc1ccccc1Cn1cc(C#N)c(=O)nc1-c1cccc(C(F)(F)F)c1Cl [II-091] the listed IC50 is < 0.05 µM

Quick note, IC50 for CS(=O)(=O)Nc1cn(Cc2ccccc2)c(-c2cccc(C(F)(F)F)c2Cl)nc1=O [II-047] landed at 0.1 to 0.5 µM

# IC50 (molecule: O=c1ccn(Cc2ccccc2-c2cccs2)c(-c2cccc(C(F)(F)F)c2Cl)c1 [Compound I-045] ) is 1 to 10 µM

Lookup result for CN(C)c1cn(Cc2ccccc2)c(-c2cccc(C(F)(F)F)c2Cl)nc1=O [II-051] ; measured IC50: 0.1 to 0.5 µM

For reference, reported IC50 for COc1cn(Cc2ccccc2C)c(-c2cccc3ncccc23)nc1=O [II-002] stands at 1 to 10 µM

The molecule identified as O=c1nc(-c2cccc(C(F)(F)F)c2Cl)n(Cc2ccccc2)cc1Oc1ccccc1 [II-080] registered its IC50 at 0.05 to 0.1 µM

Briefly, IC50 measured for O=c1ccn(Cc2ccccc2OCc2ccccc2)c(-c2cccc(C(F)(F)F)c2Cl)c1 [Compound I-049] : 0.1 to 0.5 µM

Measured IC50 of COc1cn(Cc2ccccc2C)c(-c2ccc(-c3ccccc3)cc2)nc1=O [II-067] : 1 to 10 µM

IC50 recorded for this molecule, CS(=O)(=O)c1ccc(Cn2ccc(=O)cc2-c2cccc(C(F)(F)F)c2Cl)cc1 [Compound I-060] , is 1 to 10 µM

For reference, reported IC50 for COc1cn(C(C)c2ccccc2)c(-c2cccc(C(F)(F)F)c2Cl)nc1=O (stereo not drawn) [II-039] stands at 0.05 to 0.1 µM

Looking up N#Cc1cn(Cc2ccc(F)cc2)c(-c2cccc(C(F)(F)F)c2Cl)nc1=O [II-049] , I found its IC50 recorded as 0.05 to 0.1 µM

# IC50 (molecule: O=c1ccn(Cc2cccc3cccnc23)c(-c2cccc(C(F)(F)F)c2Cl)c1 [Compound I-044] ) is 0.5 to 1 µM

molecule Cc1ccccc1Cn1ccc(=O)cc1-c1cccc(C(F)(F)F)c1Cl [Compound I-018] , IC50 observed: 0.05 to 0.1 µM

Query CC(=O)c1cn(Cc2cccc(C#N)c2)c(-c2cccc(C(F)(F)F)c2Cl)cc1=O [Compound I-005] yields IC50 of 0.5 to 1 µM

Entry NC(=O)c1cn(Cc2ccccc2)c(-c2cccc(C(F)(F)F)c2Cl)nc1=O [II-038] , IC50 reported as 0.5 to 1 µM

Lookup result for CC1(COc2cn(Cc3ccccc3)c(-c3cccc(C(F)(F)F)c3Cl)nc2=O)COC1 [II-029] ; measured IC50: 0.1 to 0.5 µM

Value of measured IC50 for the entry COc1cn(Cc2ccc(C)cc2)c(-c2cccc(C(F)(F)F)c2Cl)nc1=O [II-016] : 0.5 to 1 µM

# IC50 of O=C(c1ccccc1)c1cccc(Cn2ccc(=O)cc2-c2cccc(C(F)(F)F)c2Cl)c1 [Compound I-069] = 0.5 to 1 µM
